pKd reference
Target: Fab E10 (rabbit)
Experiment: SPR; Biacore T200; each Fab immobilised on a CM5 chip by amine coupling; peptides injected at increasing concentrations; running buffer PBS with 0.005% Tween 20; global fitting of the curves, or steady-state analysis where kinetic parameters could not be determined (fast dissociation, low affinity)
Where no end group is shown, it is not given here. Me3 = trimethyl-lysine
Scale explanation: pKd corresponds to minus log10 of a concentration expressed in moles per litre.

- NPIFEKFGK(Me3)GGTYP [Methylated MAP3K2 peptide, …(me3)GGTYP]: 4.43

## Task Entry NPIFEKFGKGGTYP [MAP3K2 peptide, …] has what pKd?
## Result 4.40
